Item-by-item account of CRF1R Emax
assay_system: CRF1R
assay_info: cell-based or functional assay
Ends that are not written are not given here.
Report only the number, with the unit % understood.

Below, 5 binders whose answers are already recorded.
binder="ZGPPISIDLPTQLLRKMIEIEKQEKEKQQAANNRLLLDTI (C-terminal amide) [SEQ ID NO 72]" unit_annotation=% data_value=4
binder="ZGPPISIDLPFQLLRKMIEIEKQEKEKQQATNNRLLLDTI (C-terminal amide) [SEQ ID NO 14]" unit_annotation=% data_value=92
binder="ZGPPISIDLPLFLLRKMIEIEKQEKEKQQAANNRLLLDTI (C-terminal amide) [SEQ ID NO 195]" unit_annotation=% data_value=93
binder="IVLSLDVPIGLLQILLEIEKQEKEKQQAANNRLLLDTI-NH2 [SEQ ID NO 158]" unit_annotation=% data_value=15
binder="IVLSLDVPIGLLQILLEQAAREQATTNARILARV-NH2 [SEQ ID NO 138]" unit_annotation=% data_value=5

*Q* Tell me measured CRF1R Emax for IVLSLEVPIGLLQILLEQARARAAREQATTNARILARV-NH2 [SEQ ID NO 120] please.
*A* 7
